systemTested: T1, EsCas13d, nuclease-dead (Eubacterium siraeum, UniProt B0MS50, R295A;H300A;R849A;H854A)
T1 sequence: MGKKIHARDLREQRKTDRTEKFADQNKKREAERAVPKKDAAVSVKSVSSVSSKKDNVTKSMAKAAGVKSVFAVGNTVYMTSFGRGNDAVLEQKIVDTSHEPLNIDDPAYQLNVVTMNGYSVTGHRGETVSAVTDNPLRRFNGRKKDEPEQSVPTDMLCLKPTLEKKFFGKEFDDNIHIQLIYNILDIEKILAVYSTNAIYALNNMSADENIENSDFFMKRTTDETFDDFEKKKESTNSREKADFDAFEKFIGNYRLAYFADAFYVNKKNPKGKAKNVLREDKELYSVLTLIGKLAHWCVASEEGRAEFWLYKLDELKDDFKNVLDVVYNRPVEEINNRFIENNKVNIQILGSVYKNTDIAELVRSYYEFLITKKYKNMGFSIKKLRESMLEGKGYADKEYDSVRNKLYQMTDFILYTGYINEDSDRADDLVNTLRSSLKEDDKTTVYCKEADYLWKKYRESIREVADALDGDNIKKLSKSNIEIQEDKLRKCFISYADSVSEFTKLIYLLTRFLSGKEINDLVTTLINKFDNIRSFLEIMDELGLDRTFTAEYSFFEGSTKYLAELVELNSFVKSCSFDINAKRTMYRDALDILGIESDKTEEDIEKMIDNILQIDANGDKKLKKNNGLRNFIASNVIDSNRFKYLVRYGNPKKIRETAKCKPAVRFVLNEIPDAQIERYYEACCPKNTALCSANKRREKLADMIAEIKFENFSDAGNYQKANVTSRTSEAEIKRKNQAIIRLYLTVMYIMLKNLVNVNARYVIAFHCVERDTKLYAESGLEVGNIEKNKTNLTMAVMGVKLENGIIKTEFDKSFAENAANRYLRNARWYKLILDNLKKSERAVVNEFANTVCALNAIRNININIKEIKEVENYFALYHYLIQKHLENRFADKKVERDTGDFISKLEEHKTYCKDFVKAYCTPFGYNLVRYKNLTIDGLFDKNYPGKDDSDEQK
procedureSummary: crRNA (strand 1, pre-loaded); Mg2+; 40 mM Tris-HCl pH 7.5, 150 mM NaCl, 6 mM MgCl2, 1 mM DTT, 0.1% Tween-20, 0.2 mg/ml BSA; 25 C; 10 min per concentration, then washed
appliedConditions: tags: His6-TwinStrep-SUMO cleaved; N-terminal SNAP kept (SNAP-Surface 488); label: 3' end held by stalled T7 RNA polymerase
Lab note: anything with Kd below 20 nM is marked label 1; values at 20 nM or higher are marked label 0.

# example entries with known answers
binder	assignedCategory
target 2 MT 5'PFS GCG 3'PFS AAA (mixed) RNA 1: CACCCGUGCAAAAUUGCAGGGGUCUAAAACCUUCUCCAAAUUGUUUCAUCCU RNA 2: GGGAAUGGAUCCACAUCUACGAAUUCGCGAGGAUGAAACAAUUUGGAGAAGAAAAGAUCGGAAGAGCACACGU	label 1
target 1 insC 3' of 11,insG 3' of 3 (mixed) RNA 1: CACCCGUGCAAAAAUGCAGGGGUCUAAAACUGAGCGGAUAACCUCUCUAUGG RNA 2: GGGAAUGGAUCCACAUCUACGAAUUCGUACCAUAGAGAGGUCUAUCCGCUGCACCGAGAUCGGAAGAGCACACGU	label 0
target 1 del8,del13 (mixed) RNA 1: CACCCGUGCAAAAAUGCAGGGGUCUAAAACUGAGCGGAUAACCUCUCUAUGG RNA 2: GGGAAUGGAUCCACAUCUACGAAUUCGUACCAUAGAGAGUUACCGCUCACCGAGAUCGGAAGAGCACACGU	label 1
target 3 U2C,G4C (mixed) RNA 1: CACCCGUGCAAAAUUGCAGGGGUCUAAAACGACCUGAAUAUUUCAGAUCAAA RNA 2: GGGAAUGGAUCCACAUCUACGAAUUCGUUUUUGAUCUGAAAUAUUCACGCCUGCAGAUCGGAAGAGCACACGU	label 1
target 1 insU 3' of 6,insU 3' of 4 (mixed) RNA 1: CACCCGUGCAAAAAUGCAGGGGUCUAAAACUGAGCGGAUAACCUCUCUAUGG RNA 2: GGGAAUGGAUCCACAUCUACGAAUUCGUACCAUAGAGAGGUUAUCCUGCUUCACCGAGAUCGGAAGAGCACACGU	label 1

Please look at the following binder next.
IN: # strict comparison: is reported Kd < 20 nM? input = target 2 MT 5'PFS AAU 3'PFS UCU (mixed) RNA 1: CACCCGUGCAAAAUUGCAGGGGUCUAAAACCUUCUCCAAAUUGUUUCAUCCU RNA 2: GGGAAUGGAUCCACAUCUACGAAUUCAAUAGGAUGAAACAAUUUGGAGAAGUCUAGAUCGGAAGAGCACACGU
OUT: label 1
